Data provenance: patent US20080108611A1

pIC50: −log10 of the molar value.
The compounds below have reported pIC50 for VEGF-R2 (Rattus norvegicus).

Examples from the recorded data:
- Cc1c(C(=O)Nc2ccc(CN3CCOCC3)cc2)sc2ncnc(Nc3ccc(Oc4ccccc4)cc3)c12 [Cpd 23]: < 4.00
- Cc1cc2c(F)c(Oc3ncnc4sc(C(=O)NCCN5CCOCC5)c(C)c34)ccc2[nH]1 [Cpd 19]: 6.61
- Cc1c(C(=O)NCCCN2CCOCC2)sc2ncnc(Nc3ccc(NC(=O)c4ccccc4)cc3)c12 [Cpd 26]: < 4.00

Please turn your attention to the following entry.
Data request: Give the reported pIC50 for this compound. Cc1c(C(=O)NCCN2CCOCC2)sc2ncnc(Nc3ccc(NC(=O)c4ccccc4)cc3)c12 [Cpd 25]
Data returned: < 4.00
